- System: NCI-H358 cells (NSCLC, G12C)
- test_method_notes: NCI-H358 CTG proliferation assay (120 h), assay 1
- Format: cell-based
- experimental_context: Homo sapiens, CellTiter-Glo, 96 well, 2000 cells per well
pIC50: −log10 of the molar value.
recorded_endpoint: pIC50

{"columns": ["molecule", "number"],
 "data": [
  ["C[C@H]1CNCCN1c1nccc(-c2noc3c2CCC[C@@]32CCCc3sc(N)c(C#N)c32)n1 [IIf-1]", 6.08]
]}

----------
- test_method_notes: Metabolic (microsomal) stability assay, HLM
- Type: in vitro ADME
- experimental_context: human liver microsomes, 1 μM test compound, predicted clearance as percent of liver blood flow
Measured HLM QH of individual entries

{"columns": ["compound", "HLM QH"],
 "data": [
  ["C[C@H]1CN(C2CCOCC2)CCCN1c1nccc(-c2noc3c2CCC[C@@]32CCCc3sc(N)c(C#N)c32)n1 (single isomer, unassigned)", ">88%"],
  ["C[C@H]1CNCCCN1c1nccc(-c2onc3c2CCC[C@@]32CCCc3sc(N)c(C#N)c32)n1", "25%"],
  ["C[C@H]1CNCCCN1c1nccc(-c2nn(C)c3c2CCC32CCCc3sc(N)c(C#N)c32)n1 (stereo partly shown)", "31%"],
  ["CO[C@@H]1C[C@@H]([C@H](C)Oc2nccc(-c3onc4c3CCC[C@@]43CCCc4sc(N)c(C#N)c43)n2)N(C)C1", ">88%"],
  ["C[C@H](Oc1nccc(-c2noc3c2CCC[C@@]32CCCc3sc(N)c(C#N)c32)n1)[C@@]1(C)CCCN1C", ">88%"],
  ["C[C@H]1CN(CC2CC2)CCCN1c1nccc(-c2onc3c2CCC[C@@]32CCCc3sc(N)c(C#N)c32)n1", ">88%"],
  ["C[C@H]1CNCCCN1c1nccc(-c2noc3c2CCC[C@@]32CCCc3sc(N)c(C#N)c32)n1 (single isomer, unassigned)", "<24%"]
]}
